- Test system: Caenorhabditis elegans N2
- protocol-description: mean nematode size ln(EXT) after 48 h, plate-adjusted (DMSO control set to 6) (ln(EXT), control-adjusted); higher = larger nematodes / less growth inhibition
- test-parameters: 0.5 µM; exposure time 48 h
Quick list: mean nematode size ln(EXT) (ln) per entry.
Answer with a bare number; do not write a unit.

Example results:
INSERT INTO measurements (compound, value_observed) VALUES
  ('Oc1ccc(Cl)cc1Cl', 6.05),
  ('CCOC(=O)COc1cc(-n2ncc(C(F)(F)F)c(C)c2=O)c(F)cc1Cl', 5.85),
  ('CC(C)(O)c1ccc(CNC(=O)c2cccnc2Oc2ccc(F)cc2)cc1', 5.74);

Asked: Need mean nematode size ln(EXT) (ln), item CCSC(=O)N1CCCCCC1 [Molinate]
Given back: 5.42

Asked: Which measured mean nematode size ln(EXT) (ln) value corresponds to Cc1ccc([N+](=O)[O-])cc1 ?
Given back: 5.99

Asked: Any idea what its mean nematode size ln(EXT) (ln) is? The compound is Oc1ccc(O)cc1 [Hydroquinone]
Given back: 5.99

Asked: Return reported mean nematode size ln(EXT) (ln); argument: CC(C)(C)c1cc(O)c(C(C)(C)C)cc1O
Given back: 5.85

Asked: Data request, read-out mean nematode size ln(EXT) (ln), for OCC(O)CO
Given back: 5.83

Asked: # input compound: O=C(O)C(Cl)Cl ; wanted: its mean nematode size ln(EXT) (ln)
Given back: 5.56

Asked: // mean nematode size ln(EXT) (ln) lookup, key: CC[C@H]1CC[C@H](NCc2cc3c(cc2OC)[C@H]2C[C@H]2C(=O)N3C)[C@H](c2ccccc2)N1
Given back: 5.85

Asked: GET /values?readout=mean nematode size ln(EXT) (ln)&item= CS/C(C)=N\OC(=O)N(C)SN(C)C(=O)O/N=C(\C)SC
Given back: 5.54

###

- System: Caenorhabditis elegans N2
- protocol-description: mean nematode size ln(EXT) after 48 h, plate-adjusted (DMSO control set to 6) (ln(EXT), control-adjusted); higher = larger nematodes / less growth inhibition
- test-parameters: 50 µM; exposure time 48 h
recorded-metric: mean nematode size ln(EXT) (ln)
No unit in the answer, please; the number alone is enough.

INSERT INTO assay_data (compound, recorded_metric, value_observed) VALUES
  ('CCOP(=S)(OCC)Oc1ccc([N+](=O)[O-])cc1 [Parathion]', 'mean nematode size ln(EXT) (ln)', 3.46),
  ('CC1=CC(=O)CC(C)(C)C1 [Isophorone]', 'mean nematode size ln(EXT) (ln)', 5.75);

Asked: Entry under review: [Cl][Hg][Cl] [Mercuric chloride] . Reported mean nematode size ln(EXT) (ln)?
Given back: 3.59

Asked: Please give the measured mean nematode size ln(EXT) (ln) for this compound: CCCCC(CC)COC(=O)c1ccccc1C(=O)OCC(CC)CCCC (stereo not given) [Diethylhexyl phthalate]
Given back: 5.67

Asked: Name the reported mean nematode size ln(EXT) (ln) value associated with the compound Cc1ccc(S(=O)(=O)O)cc1C [Sodium xylenesulfonate]
Given back: 5.89

###

- Tested on: Caenorhabditis elegans N2
- protocol-description: mean nematode size ln(EXT) after 48 h, plate-adjusted (DMSO control set to 6) (ln(EXT), control-adjusted); higher = larger nematodes / less growth inhibition
- test-parameters: 5 µM; exposure time 48 h
Counter-ions that a name gives are not always drawn.
Listed here: items and their measured mean nematode size ln(EXT) (ln).
Just the number, please.

Worked examples follow.
INSERT INTO results (molecule, assayed_system, recorded_metric, value_observed) VALUES
  ('CCCOc1ccc(S(=O)(=O)N2CCN(CC)CC2)cc1-c1nc2c(CC)n(Cc3ccccn3)nc2c(=O)[nH]1', 'Caenorhabditis elegans N2', 'mean nematode size ln(EXT) (ln)', 5.83),
  ('CCCCCCCCCCCCCCCO [1-Pentadecanol]', 'Caenorhabditis elegans N2', 'mean nematode size ln(EXT) (ln)', 5.83),
  ('CC1(C)C(C=C(Cl)Cl)C1C(=O)OCc1cccc(Oc2ccccc2)c1 (stereo not given) [Permethrin]', 'Caenorhabditis elegans N2', 'mean nematode size ln(EXT) (ln)', 5.67),
  ('O=S(=O)(O)C(F)(F)C(F)(F)C(F)(F)C(F)(F)C(F)(F)C(F)(F)C(F)(F)C(F)(F)F [Heptadecafluorooctanesulfonic acid potassium salt]', 'Caenorhabditis elegans N2', 'mean nematode size ln(EXT) (ln)', 5.12),
  ('CCCCCCC(CCCCCCCCCCC(=O)OCC(COC(C)=O)OC(C)=O)OC(C)=O (stereo not given)', 'Caenorhabditis elegans N2', 'mean nematode size ln(EXT) (ln)', 5.59),
  ('COc1cc2c(c(OC)c1OC)-c1ccc(OC)c(=O)cc1[C@@H](NC(C)=O)CC2 [Colchicine]', 'Caenorhabditis elegans N2', 'mean nematode size ln(EXT) (ln)', 5.87);

Asked: Which mean nematode size ln(EXT) (ln) value is on record for O=c1c(-c2ccc(O)cc2)coc2cc(O)cc(O)c12 [Genistein] ?
Given back: 5.92

Asked: # lookup: mean nematode size ln(EXT) (ln) of CN(C)c1ccccc1 [N,N-Dimethylaniline]
Given back: 6.03

Asked: # get_value(readout='mean nematode size ln(EXT) (ln)', item= COP(=O)(OC)C(O)C(Cl)(Cl)Cl (stereo not given) [Trichlorfon] )
Given back: 5.42

Asked: Fill in: mean nematode size ln(EXT) (ln) of Cc1ccc(C(C)C)cc1 [p-Cymene] is ___
Given back: 6.14

Asked: Look up mean nematode size ln(EXT) (ln): CCCCCCC(=O)O [Heptanoic acid]
Given back: 5.87

Asked: Given the molecule CC(C)N1C(=O)c2ccccc2NS1(=O)=O [Bentazone] , what is its reported mean nematode size ln(EXT) (ln)?
Given back: 5.96

Asked: Field request: mean nematode size ln(EXT) (ln) | item: O=[N+]([O-])c1ccc(Cl)c(Cl)c1 [1,2-Dichloro-4-nitrobenzene]
Given back: 5.93

Asked: # query: mean nematode size ln(EXT) (ln) of entry NC(=O)N/N=C/c1ccc([N+](=O)[O-])o1 [5-Nitro-2-furaldehyde semicarbazone]
Given back: 5.75

Asked: Quick check: mean nematode size ln(EXT) (ln) of O=C(O)CN(CC(=O)O)CC(=O)O [Nitrilotriacetic acid] ?
Given back: 5.87

Asked: Look up mean nematode size ln(EXT) (ln): Cc1c(COC(=O)[C@@H]2[C@H](/C=C(\Cl)C(F)(F)F)C2(C)C)cccc1-c1ccccc1 (racemic) [Bifenthrin]
Given back: 5.84

Asked: Please give the measured mean nematode size ln(EXT) (ln) for this molecule: C[C@H](O)CCO [1,3-Butanediol]
Given back: 5.88

The values you see were collected from the supplement of paper PMC4858399.
